Numbers sourced from PubChem BioAssay (NCI).

Tested on: HL-60(TB) leukemia
Test: NCI-60 one-dose screen, 48 h (100 = growth as untreated, 0 = no growth, -100 = all killed)
Conditions: 10 µM unless noted
Description: Growth inhibition of the HL-60(TB) human tumor cell line is measured as a screen for anti-cancer activity. Cells are grown in 96 well plates and exposed to the test compound for 48 hours. Compounds are tested at a single concentration, which is 10^-5 M for most compounds. The reported endpoint is percent growth (GI% or GIPRCNT), where numbers from 0 - 100% represent growth inhibition, and numbers from -100% - 0 represent cell death. For example, a value of 40 represents 60% growth inhibition. […]
About 83,000 compounds went through this panel and 20% of them were active in at least one assay; those are over-represented in the sample as a whole.
observed_property: growth (%)
API: value field is a number in %; no unit string.

Fill in: growth of "FC(F)(F)c1cn(CC2CNC2)c2ncnc(Cl)c12" is ___
73.5

Fill in: growth of "Cc1ccc(O)c(NC(=O)c2ccc(CNc3ccnc(C(F)(F)F)c3)cc2)c1" is ___
9.24

Fill in: growth of "CCc1c(C(=O)NCc2c(O)ccc3cccc(O)c23)[nH]c(C)c1C(C)=O" is ___
41.5

Fill in: growth of "O=C(Nc1ccc(OCc2nnc(-c3ccccc3)o2)c(F)c1)Nc1ccc(Cl)c(C(F)(F)F)c1" is ___
-19.7

Fill in: growth of "CC1(C)N=C(N)N=C(N)N1c1ccc(F)c(C(F)(F)F)c1" is ___
13.4

Fill in: growth of COc1cc2c(c(OC)c1OC)CCC(c1cccc(C(=O)Nc3ccc(Br)cc3)c1)O2 (configuration not stated) is ___
73.1

Fill in: growth of "CCOC(=O)/C(C#N)=C(\C)CCc1ccccc1" is ___
239

Fill in: growth of "O=S(=O)(NCCNc1nccc(-c2c(-c3cccc(O)c3)nc3occn23)n1)c1ccc(C(F)(F)F)cc1" is ___
79.1

Fill in: growth of "COc1ccc(N2C(=O)/C(=C/C(Cl)=C/c3ccc([N+](=O)[O-])cc3)SC2=S)cc1" is ___
-14

Fill in: growth of "CN1CCN(C(=O)[C@@]2(C)CC[C@]3(C)CC[C@]4(C)C(=CC[C@@H]5[C@@]6(C)CC[C@H](OC(=O)c7cccnc7)C(C)(C)[C@@H]6CC[C@]54C)[C@@H]3C2)CC1" is ___
-49.1

Fill in: growth of "COc1cccc(Nc2nc(SC)nc(-c3cccc([N+](=O)[O-])c3)c2C#N)c1" is ___
112

Fill in: growth of "COc1ccc(N2CCN(S(=O)(=O)c3oc(-c4ccccc4)nc3C#N)CC2)cc1" is ___
50.5

Fill in: growth of "O=C(Nc1cccc(-n2cc(-c3ccncc3)c(-c3cc(O)cc(Cl)c3)n2)c1)Nc1ccc(Cl)c(C(F)(F)F)c1" is ___
-26.9

Fill in: growth of "CCOC(=O)CC(=O)c1c(C)cc(C)cc1C" is ___
90.8

Fill in: growth of CC(C)C[C@@H](NC(=O)[C@@H](Cc1ccccc1)NC(=O)c1cnccn1)B1Oc2ccc(C[C@H](NC(=O)[C@H](Cc3ccc4c(c3)OB([C@@H](CC(C)C)NC(=O)[C@@H](Cc3ccccc3)NC(=O)c3cnccn3)O4)NC(=O)[C@@H](N)CC3CCC4OB([C@@H](CC(C)C)NC(=O)[C@@H](CC5CCCCC5)NC(=O)C5CNCCN5)OC4C3)C(=O)NCCCC[C@@H]3NC(=O)[C@@H](Cc4ccccc4)NC(=O)[C@H](CC(=O)O)NC(=O)CNC(=O)[C@H](CCCNC(=N)N)NC3=O)cc2O1 (some centres not stated) is ___
-2.54

Fill in: growth of "CCOC(=O)c1c[nH][nH]c1=O" is ___
110

Fill in: growth of "Fc1cc2c(cc1Cl)N(c1ncnc3ccc(-c4cnc5cnccn45)cc13)CC2" is ___
-7.92

Fill in: growth of "COc1ccc2c(c1)c(-c1cc(-c3cn(C)c4ccc(OC)cc34)on1)cn2C" is ___
101

Fill in: growth of "COc1cc(/C=C/C(=O)c2c(C)n([O-])c3ccc(Cl)cc3[n+]2=O)cc(OC)c1OC" is ___
12.7

Fill in: growth of "COc1ccc(OC)c([N+](=O)[O-])c1C=O" is ___
88.2

Fill in: growth of "O=C(N/N=C/c1ccccc1SSc1ccccc1/C=N/NC(=O)c1ccccc1)c1ccccc1" is ___
3.4

Fill in: growth of "O=C1NC(=S)N[C@H]1CC(=O)n1cnc2ccccc21" is ___
109

###

Test system: HL-60(TB) leukemia
Assay: NCI-60 one-dose screen, 48 h
Conditions: 10 µM unless noted
About 83,000 compounds went through this panel and 20% of them were active in at least one assay; those are over-represented in the sample as a whole. Calls of active or inactive are those of the source. How the source made its calls: active means growth percent below 10; inactive means the rest.
Permitted responses: active, inactive

Returns: the outcome recorded for "CCc1c(C)[nH]c(=O)c(C(N)=O)c1C#N" in this assay.
inactive

Returns: the outcome recorded for "COc1cc2nc(-c3ccc(Cl)cc3)cc(OCCCN3CCOCC3)c2cc1OC" in this assay.
inactive

Returns: the outcome recorded for "COc1ccc(Cn2cc(C(=O)N=Nc3c(O)[nH]c4c(C)cccc34)nn2)cc1" in this assay.
inactive

Returns: the outcome recorded for "COc1ccc(-c2cc(-c3ccccc3)nc(SCCCC(=O)NO)n2)cc1" in this assay.
active

Returns: the outcome recorded for COc1cc(NC(C)CCCN)c2nc(C)ccc2c1Oc1ccc(F)cc1 (stereo not given) in this assay.
inactive

Returns: the outcome recorded for "CCCCCCCCn1ccc2cc(NC(=O)CN3CCN(c4nc(C)cc(N5CCCCC5)n4)CC3)ccc21" in this assay.
inactive

Returns: the outcome recorded for "Cc1cc(C)c(NC(=O)c2sc3nc4c(cc3c2N)C(=O)CCC4)c(C)c1" in this assay.
inactive

Returns: the outcome recorded for "CO[C@H]1C[C@@H]2CC[C@@H](C)[C@@](O)(O2)C(=O)C(=O)N2CCCC[C@H]2C(=O)O[C@H]([C@H](C)C[C@@H]2CC[C@@H](OC(=O)C(C)(CO)CO)[C@H](OC)C2)CC(=O)[C@H](C)/C=C(\C)[C@@H](O)[C@@H](OC)C(=O)[C@H](C)C[C@H](C)\C=C/C=C/C=C/1C" in this assay.
active

Returns: the outcome recorded for "COc1ccc(-c2nn(-c3ccc(NC(=O)Nc4ccc(Cl)c(C(F)(F)F)c4)cc3)cc2-c2ccncc2)cc1Cl" in this assay.
active

Returns: the outcome recorded for "COc1ccc(C[n+]2c3ccccc3n3c4ccc(N)cc4ccc32)c(OC)c1OC" in this assay.
active

Returns: the outcome recorded for "C=C(c1ccc(C(=O)O)c(F)c1)c1cc2c(cc1C)C(C)(C)CCC2(C)C" in this assay.
inactive

Returns: the outcome recorded for "O=[N+]([O-])/C(=C/c1ccccc1)c1ccccc1" in this assay.
inactive

Returns: the outcome recorded for "CC1=C/C(=N\N=C2/C=C(C)CC(C)(C)C2)CC(C)(C)C1" in this assay.
inactive

Returns: the outcome recorded for O=C(O)CC(C(=O)O)/C(=C\c1ccccc1)c1ccccc1 (stereo not given) in this assay.
inactive

Returns: the outcome recorded for "Cc1ccc2c(n1)C(=O)C(Cl)=C(Nc1ccc(N3CCN(C)CC3)cc1)C2=O" in this assay.
active

Returns: the outcome recorded for "Clc1ccc(-c2nnc(-c3cccc4ccccc34)o2)cc1" in this assay.
inactive

Returns: the outcome recorded for "COc1ccc(-c2cn[nH]c2-c2cc(OC)c(OC)c(OC)c2)cc1OCc1ccccc1" in this assay.
inactive

Returns: the outcome recorded for "COc1ccc(C(=O)c2sc3nc(C)cc(C)c3c2N)cc1OC" in this assay.
inactive

Returns: the outcome recorded for COc1ccc(C2CCCCC2=O)cc1 (stereo not given) in this assay.
inactive

Returns: the outcome recorded for C[C@@H]1CC2C3C[C@H](F)C4=CC(=O)C=C[C@]4(C)[C@@]3(F)[C@@H](O)C[C@]2(C)[C@@]1(O)C(=O)CO (stereo not given in full) in this assay.
inactive

Returns: the outcome recorded for "Cc1nc2cccc(NCCCCC(=O)NO)c2c(=O)n1-c1ccccc1" in this assay.
inactive

Returns: the outcome recorded for "COc1ccc([C@H]2c3[nH]c4ccccc4c3C[C@H]3C(=O)N(CCCCCCC(=O)NO)CC(=O)N23)cc1" in this assay.
active

Returns: the outcome recorded for "Nc1ccc(N)c2c1Oc1ccccc1O2" in this assay.
inactive

Returns: the outcome recorded for "Cc1cc2c(cc1C)Nc1sc(NC(=O)CN3CCN(C)CC3)nc1C(=O)N2" in this assay.
inactive

Returns: the outcome recorded for "COC(=O)c1c2c(c(C)[n+]([O-])c1C)C(=O)C=CC2=O" in this assay.
active

Returns: the outcome recorded for "C=C(C)[C@@H]1CC[C@]2(C)[C@H](CC(=O)N[C@H]3[C@@H]4C[C@](C)(C(=O)OC)CC[C@]4(C)CC[C@]32C)[C@@]1(C)CCC#N" in this assay.
inactive

Returns: the outcome recorded for "C=C(C)[C@@H]1CC[C@]2(C#N)CC[C@]3(C)[C@H](CC[C@@H]4[C@@]5(C)CCCNC(C)(C)[C@@H]5CC[C@]43C)[C@@H]12" in this assay.
inactive

Returns: the outcome recorded for "Cc1ccc(/C(=N\N=C(N)N)c2ccccc2)cc1" in this assay.
active

Returns: the outcome recorded for "Cc1cc(C)nc(NC(N)=NCCc2ccccc2)n1" in this assay.
inactive

Returns: the outcome recorded for "CC[C@@]1(OC(=O)CN(C)C)C(=O)OCc2c1cc1n(c2=O)Cc2cc3c(N)cccc3nc2-1" in this assay.
active

Returns: the outcome recorded for "O=c1[nH]c(Cl)nc2c1cnn2-c1ccccc1" in this assay.
active

Returns: the outcome recorded for "N#Cc1c(N)nc(Nc2nc3ccccc3[nH]2)nc1-c1ccc(Cl)cc1" in this assay.
inactive

Returns: the outcome recorded for "C[C@H]1[C@H](C)CC[C@]2(C(=O)O)CC[C@]3(C)C(=CC[C@@H]4[C@@]5(C)C/C(=C/c6cccnc6)[C@H](O)C(C)(C)[C@@H]5CC[C@]43C)[C@H]12" in this assay.
active

Returns: the outcome recorded for "CCCCCCNC(=O)Oc1ccc(/C(=C(\C)c2ccc(Cl)cc2)c2ccc(OCCN(CC)CC)cc2)cc1" in this assay.
inactive

Returns: the outcome recorded for "Cc1nnc([S-])s1.[Au+].c1ccc([PH+](c2ccccc2)c2ccccc2)cc1" in this assay.
active
